Test system: Saccharomyces cerevisiae
Experiment: protein stability index of tFT-peptide fusion (C-terminal peptide) (PSI (0-1 scale)); higher = more stable (slower turnover)
Conditions: genetic background: wild type; temperature: 30 C
protein stability index below 0.7 gives no (0); protein stability index at or above it gives yes (1).

{"columns": ["query-sequence", "cat"],
 "data": [
  ["VGSLFGFGGRWV", "no (0)"],
  ["IKSKCIQSKETT", "no (0)"],
  ["CPIASSRHSVGL", "yes (1)"],
  ["ARGFSAGAIGVG", "no (0)"],
  ["SAGVTGREVFVG", "no (0)"],
  ["LLCSPPPLTVPA", "no (0)"],
  ["KPRKEKRGLVNS", "no (0)"],
  ["AKEERKVIRKMK", "no (0)"],
  ["CVVFLWCGGCWV", "no (0)"],
  ["AQFFQALATYPI", "no (0)"],
  ["PRPNGLSTDDLE", "yes (1)"],
  ["QLFTAKHSDPLD", "yes (1)"],
  ["NRSERIKDNRGK", "yes (1)"],
  ["FKLVPCLGPSHF", "yes (1)"],
  ["SAPRFPARFYPL", "no (0)"],
  ["RTSGRIASLPGP", "no (0)"],
  ["ALPLRFSSPGPS", "no (0)"],
  ["AYTSVSVDHLIH", "no (0)"],
  ["PPSPPRPHFPSL", "yes (1)"],
  ["LTAGGGEACGPP", "no (0)"],
  ["KKQKKKKSTKRN", "yes (1)"],
  ["VGIRTFFRFRMR", "no (0)"],
  ["RLGAELGQLRCC", "no (0)"],
  ["RISYKTKINELI", "no (0)"],
  ["NLHLVRNEELVL", "no (0)"],
  ["SISLSLSQSDRR", "no (0)"],
  ["CYCSIGCLIIFS", "no (0)"],
  ["PDRPVISLLLPS", "no (0)"],
  ["GAPTYTGEPRTP", "yes (1)"],
  ["SLRKVTEKDKRT", "no (0)"],
  ["MYLLSFRALGSS", "no (0)"],
  ["GGVRAAGTGCGG", "no (0)"]
]}

###

System: Saccharomyces cerevisiae
Test: protein stability index of tFT-peptide fusion (C-terminal peptide) (PSI (0-1 scale)); higher = more stable (slower turnover)
Settings: genetic background: wild type; temperature: 30 C
// reported protein stability index for each item listed

{"columns": ["query-sequence", "protein stability index"],
 "data": [
  ["SKNEFKKIMKKY", 0.711],
  ["SMCAFRPFPFSS", 0.709],
  ["PTRSPPPAAIAS", 0.697]
]}

###

Test system: Saccharomyces cerevisiae;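 also: PSI is a weighted mean of sequencing reads over stability bins, variants kept only with over 10 reads, mCherry proximal and sfGFP distal, peptide attached via GGGS linker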
Assay: protein stability index of tFT-peptide fusion (C-terminal peptide) (PSI (0-1 scale)); higher = more stable (slower turnover)
Details: genetic background: wild type; temperature: 30 C
// reported protein stability index for each item listed
observed-property: protein stability index

{"columns": ["query-sequence", "observed-property", "measured-value"],
 "data": [
  ["RWPSVGFTAHNV", "protein stability index", 0.571],
  ["SLVAALHRPTFV", "protein stability index", 0.679],
  ["VSQLGTYICSYL", "protein stability index", 0.687],
  ["VGGGLGGGVVLV", "protein stability index", 0.699],
  ["CFGIFWLFARLK", "protein stability index", 0.345],
  ["CGLRVAGVLCWG", "protein stability index", 0.465],
  ["PVLLPPCCLAIV", "protein stability index", 0.548],
  ["GRKSSITLLHTL", "protein stability index", 0.58],
  ["NTGNGYDEKTME", "protein stability index", 0.762],
  ["PIPAPFFLAPPL", "protein stability index", 0.731],
  ["TSIFRIICLTDR", "protein stability index", 0.642],
  ["VVFISGVYCSRL", "protein stability index", 0.688],
  ["LCYLPLTLPPVL", "protein stability index", 0.582],
  ["PLSPPLPLPLPL", "protein stability index", 0.75],
  ["CGALKGKKPYGV", "protein stability index", 0.715],
  ["MTSCAVDHPERR", "protein stability index", 0.703],
  ["CTGVFTGRCEGG", "protein stability index", 0.653],
  ["IVRNDRSGPWGD", "protein stability index", 0.756],
  ["ASFRPDGYTYSV", "protein stability index", 0.622],
  ["PLIYFLASNSRF", "protein stability index", 0.713],
  ["LVGLCSVFPSLV", "protein stability index", 0.716],
  ["RRGYSNCMTLWI", "protein stability index", 0.702],
  ["FGPLFSEDTRKV", "protein stability index", 0.703],
  ["LDEQIKIRIKEK", "protein stability index", 0.721],
  ["FCPEGGYSVFYL", "protein stability index", 0.719],
  ["LGKSTLYMALNN", "protein stability index", 0.402],
  ["AGLLVLISWRLF", "protein stability index", 0.217],
  ["PLPPILPAPPPT", "protein stability index", 0.704],
  ["PFFVRNTFTCSL", "protein stability index", 0.735],
  ["LWLCLERFPCSR", "protein stability index", 0.74],
  ["KKESNFVKKKEI", "protein stability index", 0.741],
  ["GRGACHSRGNQP", "protein stability index", 0.668],
  ["WCRHREYFYGSN", "protein stability index", 0.657],
  ["GPSTVPGHGSDT", "protein stability index", 0.689],
  ["RGPGRTPLGRQL", "protein stability index", 0.689],
  ["PLSPPPAPLPSS", "protein stability index", 0.747],
  ["GWVQRGAEARRE", "protein stability index", 0.705],
  ["GGWPWGGFLVDR", "protein stability index", 0.735],
  ["CLGRDVENRDAW", "protein stability index", 0.785],
  ["VWSPGGGAFVGG", "protein stability index", 0.815],
  ["CCRICCCLLGTH", "protein stability index", 0.658],
  ["LLPAPPRLLPSS", "protein stability index", 0.68],
  ["DRMYDELFTKCC", "protein stability index", 0.619],
  ["LLPPPVFPPLSP", "protein stability index", 0.753],
  ["AAPGMIFRDPAQ", "protein stability index", 0.739],
  ["KSARLYVTSFLC", "protein stability index", 0.194],
  ["APPHPPPPLPPP", "protein stability index", 0.637],
  ["GWCACFMGSGWG", "protein stability index", 0.703],
  ["SPSPPLPSRLIL", "protein stability index", 0.673],
  ["AKSCNSVHALRT", "protein stability index", 0.668],
  ["CAVSFPLCLLPP", "protein stability index", 0.644],
  ["VQLLTRLKTPHP", "protein stability index", 0.733],
  ["RNQTRKTTQKPR", "protein stability index", 0.661],
  ["PRPRPSPLPPPS", "protein stability index", 0.751],
  ["CSVCPGYLFGCA", "protein stability index", 0.601],
  ["RPPSLCSYSICV", "protein stability index", 0.585],
  ["KKEEEGRTKECR", "protein stability index", 0.694],
  ["SNGTRGSKLPAI", "protein stability index", 0.685],
  ["AAQRGSTMARGG", "protein stability index", 0.704],
  ["PSPPAPPPETSP", "protein stability index", 0.713],
  ["SYSLGAGVCGVW", "protein stability index", 0.682],
  ["QSPSHSYLCHLF", "protein stability index", 0.583],
  ["PRSTWPFRLFVR", "protein stability index", 0.531],
  ["KRKQDKEAEKKS", "protein stability index", 0.704],
  ["RIKNMNNNEEKR", "protein stability index", 0.714],
  ["PRAGPLAALSLS", "protein stability index", 0.695],
  ["DARTLTECTCRG", "protein stability index", 0.648]
]}
